The origin of these recorded values is patent US20200392228A1.

Target: T1, human MAdCAM expressed on cells (human, UniProt Q13477 19-382)
T1 construct: whole, on cells; also called MADCAM1
T1 sequence (looked up): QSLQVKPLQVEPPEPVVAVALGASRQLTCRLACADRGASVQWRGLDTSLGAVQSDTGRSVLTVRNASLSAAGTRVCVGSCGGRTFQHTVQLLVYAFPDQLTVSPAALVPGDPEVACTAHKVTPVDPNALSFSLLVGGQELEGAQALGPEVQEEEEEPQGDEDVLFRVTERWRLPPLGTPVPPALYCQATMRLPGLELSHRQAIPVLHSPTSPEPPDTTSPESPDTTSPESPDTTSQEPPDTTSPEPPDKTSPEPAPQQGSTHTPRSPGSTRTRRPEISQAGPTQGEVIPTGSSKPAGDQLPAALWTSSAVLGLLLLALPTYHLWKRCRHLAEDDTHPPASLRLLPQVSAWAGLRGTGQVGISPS
Experiment: cell binding
Measured quantity: binding result

Binder: MAdCAM antibody Clone ID 19 of Table 6 (scFv) (scFv) scFv: EVQLLESGGGLVQPGGSLRLSCAASGFTFDDYAMHWVRQAPGKGLEWVSGISWNSGSIGYADSVKGRFTISRDNSKNTLYLQMNSLRAEDTAVYYCAKDIVAAGHYYYGMDVWGQGTTVTVSSGGGGSGGGGSGGGGSGGGGSDIQMTQSPSSLSASVGDRVTITCQASQDISNYLNWYQQKPGKAPKLLIYDASNLETGVPSRFSGSGSGTDFTLTISSLQPEDFATYYCQQSYSTPLTFGGGTKVEIK
Reported measurement: binds
//
Binder: MAdCAM antibody Clone ID 8 of Table 6 (scFv) (scFv) scFv: EVQLLESGGGLVQPGGSLRLSCAASGFMFGDYAMHWVRQAPGKGLEWVSAISGSGGSTYYADSVKGRFTISRDNSKNTLYLQMNSLRAEDTAVYYCAKDLVVAGIWYFDLWGRGTLVTVSSGGGGSGGGGSGGGGSGGGGSDIQMTQSPSSLSASVGDRVTITCRASQGISNNLNWYQQKPGKAPKLLIYDASSLESGVPSRFSGSGSGTDFTLTISSLQPEDFATYYCQQTHSFPSTFGQGTKLEIK
Reported measurement: binds
//
Binder: MAdCAM antibody Clone ID 53 of Table 6 (scFv) (scFv) scFv: QVQLVQSGAEVKKPGASVKVSCKASGYTFTSYDINWVRQAPGQGLEWMGWMNPNSGNTGYAQKFQGRVTMTRDTSTSTVYMELSSLRSEDTAVYYCAKDSDYSNLLWDYWGQGTLVTVSSGGGGSGGGGSGGGGSGGGGSDIQMTQSPSSLSASVGDRVTITCRASQDITNDLGWYQQKPGKAPKLLIYQASSLESGVPSRFSGSGSGTDFTLTISSLQPEDFATYYCQQSYTIPLTFGQGTKVEIK
Reported measurement: binds
